Test: activity coefficient (dimensionless); of the first substance listed, at infinite dilution; xn = mol fraction of the nth substance listed
Details: 348.15 K; 101 kPa; Liquid; Chromatography; x1 = 0
Label true for high-side activity coefficient (at or above 7) and false for low-side activity coefficient (below it).

Study these solved cases before continuing.
compound	group_label
C1CCCCC1 [cyclohexane] + CCCCCC[N+]1(C)CCCCC1.O=S(=O)([N-]S(=O)(=O)C(F)(F)F)C(F)(F)F	false
C1=CCCCC1 [cyclohexene] + CCCCC[N+]1(C)CCCCC1.O=S(=O)([N-]S(=O)(=O)C(F)(F)F)C(F)(F)F	false
C#CCCCCC [1-heptyne] + CCCCC[N+]1(C)CCCCC1.O=S(=O)([N-]S(=O)(=O)C(F)(F)F)C(F)(F)F	false

// query Item C1CCOC1 [tetrahydrofuran] + CCCCC[N+]1(C)CCCCC1.O=S(=O)([N-]S(=O)(=O)C(F)(F)F)C(F)(F)F with activity coefficient of 7 or above?
// result false

// query Item CC1CCCCC1 [methylcyclohexane] + CCCCC[N+]1(C)CCCCC1.O=S(=O)([N-]S(=O)(=O)C(F)(F)F)C(F)(F)F with activity coefficient of 7 or above?
// result false

// query Item CCCCCCC [heptane] + CCCCC[N+]1(C)CCCCC1.O=S(=O)([N-]S(=O)(=O)C(F)(F)F)C(F)(F)F with activity coefficient of 7 or above?
// result true

* * *

Assay: activity coefficient (dimensionless); of the first substance listed, at infinite dilution; xn = mol fraction of the nth substance listed
Details: 308.15 K; 101 kPa; Liquid; Chromatography; x1 = 0
Recorded activity coefficient determines the label; the label ranges are low value (below 0.9), medium value (0.9 to below 7), high value (7 or more)

Study these solved cases before continuing.
molecule	group_label
CC(C)=O [acetone] + CCCCCC[N+]1(C)CCCCC1.O=S(=O)([N-]S(=O)(=O)C(F)(F)F)C(F)(F)F	low value
C1CCCC1 [cyclopentane] + CCCCCC[N+]1(C)CCCCC1.O=S(=O)([N-]S(=O)(=O)C(F)(F)F)C(F)(F)F	medium value
CC1CCCCC1 [methylcyclohexane] + CCCCC[N+]1(C)CCCCC1.O=S(=O)([N-]S(=O)(=O)C(F)(F)F)C(F)(F)F	high value
CCc1ccccc1 [ethylbenzene] + CCCCCC[N+]1(C)CCCCC1.O=S(=O)([N-]S(=O)(=O)C(F)(F)F)C(F)(F)F	low value

We next turn to a different molecule, shown below.
// query Textbook exercise: identify the category of the molecule given here, C=CCCCCC [1-heptene] + CCCCC[N+]1(C)CCCCC1.O=S(=O)([N-]S(=O)(=O)C(F)(F)F)C(F)(F)F , according to its measured value.
// result high value

* * *

Entries annotated with measured activity coefficient
Assay: activity coefficient (dimensionless); of the first substance listed, at infinite dilution; xn = mol fraction of the nth substance listed
Details: 348.15 K; 101 kPa; Liquid; Chromatography; x1 = 0
// response body must contain only the number

Sample answers from the record:
compound	observed_result
CCCCCO [pentan-1-ol] + CCCCCC[N+]1(C)CCCCC1.O=S(=O)([N-]S(=O)(=O)C(F)(F)F)C(F)(F)F	1.8
C1CCCCCC1 [cycloheptane] + CCCCCC[N+]1(C)CCCCC1.O=S(=O)([N-]S(=O)(=O)C(F)(F)F)C(F)(F)F	5.32
CCO [ethanol] + CCCCC[N+]1(C)CCCCC1.O=S(=O)([N-]S(=O)(=O)C(F)(F)F)C(F)(F)F	1.27
Cc1ccccc1 [toluene] + CCCCC[N+]1(C)CCCCC1.O=S(=O)([N-]S(=O)(=O)C(F)(F)F)C(F)(F)F	1.01
O [water] + CCCCC[N+]1(C)CCCCC1.O=S(=O)([N-]S(=O)(=O)C(F)(F)F)C(F)(F)F	2.78

// query Item CCCCCC [hexane] + CCCCCC[N+]1(C)CCCCC1.O=S(=O)([N-]S(=O)(=O)C(F)(F)F)C(F)(F)F has what recorded activity coefficient?
// result 6.67

// query Item CO [methanol] + CCCCCC[N+]1(C)CCCCC1.O=S(=O)([N-]S(=O)(=O)C(F)(F)F)C(F)(F)F has what recorded activity coefficient?
// result 1.08

// query Item C1CCCCC1 [cyclohexane] + CCCCC[N+]1(C)CCCCC1.O=S(=O)([N-]S(=O)(=O)C(F)(F)F)C(F)(F)F has what recorded activity coefficient?
// result 5.13

// query Item CCC(C)(C)OC [2-methoxy-2-methylbutane] + CCCCCC[N+]1(C)CCCCC1.O=S(=O)([N-]S(=O)(=O)C(F)(F)F)C(F)(F)F has what recorded activity coefficient?
// result 2.22

// query Item c1ccccc1 [benzene] + CCCCCC[N+]1(C)CCCCC1.O=S(=O)([N-]S(=O)(=O)C(F)(F)F)C(F)(F)F has what recorded activity coefficient?
// result 0.722

// query Item Cc1ccccc1C [1,2-dimethylbenzene] + CCCCCC[N+]1(C)CCCCC1.O=S(=O)([N-]S(=O)(=O)C(F)(F)F)C(F)(F)F has what recorded activity coefficient?
// result 1.16

// query Item C1CCCCCC1 [cycloheptane] + CCCCC[N+]1(C)CCCCC1.O=S(=O)([N-]S(=O)(=O)C(F)(F)F)C(F)(F)F has what recorded activity coefficient?
// result 6.54

// query Item CCCCCCCCC [nonane] + CCCCC[N+]1(C)CCCCC1.O=S(=O)([N-]S(=O)(=O)C(F)(F)F)C(F)(F)F has what recorded activity coefficient?
// result 19

// query Item CCCCCCCC [octane] + CCCCCC[N+]1(C)CCCCC1.O=S(=O)([N-]S(=O)(=O)C(F)(F)F)C(F)(F)F has what recorded activity coefficient?
// result 11.3

// query Item C#CCCC [1-pentyne] + CCCCCC[N+]1(C)CCCCC1.O=S(=O)([N-]S(=O)(=O)C(F)(F)F)C(F)(F)F has what recorded activity coefficient?
// result 1.53

// query Item COC(C)(C)C [2-methoxy-2-methylpropane] + CCCCCC[N+]1(C)CCCCC1.O=S(=O)([N-]S(=O)(=O)C(F)(F)F)C(F)(F)F has what recorded activity coefficient?
// result 1.72

// query Item C=CCCCC [hex-1-ene] + CCCCCC[N+]1(C)CCCCC1.O=S(=O)([N-]S(=O)(=O)C(F)(F)F)C(F)(F)F has what recorded activity coefficient?
// result 4.15

// query Item C#CCCCCCC [1-octyne] + CCCCCC[N+]1(C)CCCCC1.O=S(=O)([N-]S(=O)(=O)C(F)(F)F)C(F)(F)F has what recorded activity coefficient?
// result 3.24

// query Item C1CCOC1 [tetrahydrofuran] + CCCCCC[N+]1(C)CCCCC1.O=S(=O)([N-]S(=O)(=O)C(F)(F)F)C(F)(F)F has what recorded activity coefficient?
// result 0.627

// query Item CCCCCCCC [octane] + CCCCC[N+]1(C)CCCCC1.O=S(=O)([N-]S(=O)(=O)C(F)(F)F)C(F)(F)F has what recorded activity coefficient?
// result 14.4
